Activity for assorted molecules
Test system: PC-12
Assay Text: Neuroprotective activity in rat PC12 cells at 1 uM by lactate dehydrogenase assay
Format: functional
Numeric answer only, unit % assumed.

Worked set:
>>> measured_value("COc1ccc(/C=C(/C(=O)N2CCc3ccc(C(=O)NO)cc3C2)c2ccc(F)cc2)c(OC)c1")
38
>>> measured_value("COc1ccc(/C=C(/C(=O)N2CCc3ccc(C(=O)NO)cc3C2)c2ccccc2F)cc1OC")
100

Kindly consider the entry below.
Recorded Activity (molecule "O=C(NO)c1ccc2c(c1)CN(C(=O)/C(=C/c1ccc(F)cc1F)c1ccc(F)cc1)CC2" ): 56

====

Reported IC50 values, Protein deacetylase HDAC6 (Homo sapiens).

>>> measured_value("COc1ccc(/C=C(/C(=O)N2CCc3ccc(C(=O)NO)cc3C2)c2ccccc2)cc1")
"< 1 nM"

Value (IC50, Protein deacetylase HDAC6 (Homo sapiens)) for record "COc1ccc(/C=C(/C(=O)N2CCc3ccc(C(=O)NO)cc3C2)c2ccc(F)cc2)c(OC)c1" = < 1 nM

Value (IC50, Protein deacetylase HDAC6 (Homo sapiens)) for record "Cc1ccc(/C(=C\c2ccc(F)cc2)C(=O)N2CCc3ccc(C(=O)NO)cc3C2)cc1" = < 1 nM

Value (IC50, Protein deacetylase HDAC6 (Homo sapiens)) for record "Cc1ccc(/C(=C\c2ccccc2)C(=O)N2CCc3ccc(C(=O)NO)cc3C2)cc1" = < 1 nM

====

Tested on: PC-12
Assay Text: Neuroprotective activity in rat PC12 cells at 1 uM by lactate dehydrogenase assay
Assay type: functional
Activity for assorted molecules
Numeric answer only, unit % assumed.

Worked set:
>>> measured_value("O=C(NO)c1ccc2c(c1)CN(C(=O)/C(=C/c1ccccc1)c1cccc(Cl)c1)CC2")
77.8
>>> measured_value("COc1cc(/C=C(/C(=O)N2CCc3ccc(C(=O)NO)cc3C2)c2ccc(F)cc2)ccc1F")
67.2
>>> measured_value("O=C(NO)c1ccc2c(c1)CN(C(=O)/C(=C/c1ccccc1)c1ccccc1)CC2")
36.6

Recorded Activity (molecule "O=C(NO)c1ccc2c(c1)CN(C(=O)/C(=C/c1cccs1)c1ccc(F)cc1)CC2" ): 71.8

Recorded Activity (molecule "Cc1ccc(/C(=C\c2ccccc2)C(=O)N2CCc3ccc(C(=O)NO)cc3C2)cc1" ): 68.7

Recorded Activity (molecule "COc1ccc(/C=C(/C(=O)N2CCc3ccc(C(=O)NO)cc3C2)c2ccccc2)cc1" ): 55

Recorded Activity (molecule "Cc1ccc(/C(=C\c2ccc(F)cc2)C(=O)N2CCc3ccc(C(=O)NO)cc3C2)cc1" ): 100
